- Read-out: Apolipoprotein A-V (APOA5) gene, APOA5 (gene 116519)
- TEST_NAME: LTEA_HepaRG_APOA5: Life Technologies and Expression Analysis (LTEA) Assay for Apolipoprotein A-V (APOA5) gene using HepaRG (AID 2283474)
- APPLIED_CONDITIONS: mRNA level, 48 h; actives raise or lower the signal
The source made the active and inactive calls. The calls were made as follows: active = hit-call score of the fitted dose curve at least 0.9, where 1 is the maximum; inactive = score below 0.9.
In this exercise, the only acceptable responses are yes for active, no for inactive

Data request: How was S=C1NCCN1 classified in this test?
Data returned: no

Data request: Each molecule tested received a call. Report the one for CC(COc1ccc(Oc2ccccc2)cc1)Oc1ccccn1 (stereo unspecified) .
Data returned: no

Data request: Write down the call the test reported for this molecule. Item: CCOP(=S)(OCC)SCCSCC
Data returned: no

Data request: Test call for this molecule, please: CCCOCC(=Nc1ccc(Cl)cc1C(F)(F)F)n1ccnc1
Data returned: no

Data request: Please let me know the test result on file for CCOP(=S)(OCC)Oc1ccc([N+](=O)[O-])cc1 .
Data returned: no

Next:
Data request: Query: recorded result category for CCC(=O)Nc1ccc(Cl)c(Cl)c1 in this test
Data returned: no

Data request: Returns: the outcome recorded for CCC(=NOC/C=C/Cl)C1=C(O)CC(C2CCOCC2)CC1=O (stereo unspecified) in this assay.
Data returned: no

Data request: Would you mind telling me which call this test gave CCCCOC(=O)c1ccccc1C(=O)O ?
Data returned: no

Data request: For this molecule, state the assay outcome: CNc1cnn(-c2cccc(C(F)(F)F)c2)c(=O)c1Cl
Data returned: no

Data request: What outcome does the record of this test show for CCCSP(=O)(OCC)Oc1ccc(Br)cc1Cl (stereo unspecified) ?
Data returned: no

Data request: Query: recorded result category for COP(=O)(OC)C(O)C(Cl)(Cl)Cl (stereo unspecified) in this test
Data returned: no

Data request: // outcome(item) with item = CC(Oc1cccc(Cl)c1)C(=O)O (stereo unspecified)
Data returned: no

Data request: Answer briefly: the call reported for CC(C)=CC1C(C(=O)OCN2C(=O)C3=C(CCCC3)C2=O)C1(C)C (stereo unspecified) in this assay.
Data returned: no

###

- Read-out: glucuronosyltransferase (UGT1A1), UGT1A1 (gene 54658)
- TEST_NAME: CLD_UGT1A1_24hr: CellzDirect (CLD) Gene Expression Assay for glucuronosyltransferase (UGT1A1) at 24 hours (AID 2283696)
Results filed as inconclusive are left out. Activity calls are given as the source filed them. Rule for the calls: active = hit-call score of the fitted dose curve at least 0.9, where 1 is the maximum; inconclusive = response in the unintended direction; inactive = score below 0.9.
Would you mind answering with one of these outcomes? active, inactive

Please review the following examples before continuing.
Data request: Hello, I am checking results. What call was entered for CNc1cnn(-c2cccc(C(F)(F)F)c2)c(=O)c1Cl ?
Data returned: inactive

Data request: Recorded call for CSC1=N[C@@](C)(c2ccccc2)C(=O)N1Nc1ccccc1 ?
Data returned: inactive

Data request: Test call for this molecule, please: COP(=O)(OC)SCn1c(=O)oc2cc(Cl)cnc21
Data returned: inactive

New cases:
Data request: Any idea what this test logged for CC(=NC#N)N(C)Cc1ccc(Cl)nc1 ?
Data returned: inactive

Data request: So what was the verdict on CC[C@H](C)[C@H]1O[C@]2(C=C[C@@H]1C)C[C@@H]1C[C@@H](C/C=C(\C)[C@@H](O[C@H]3C[C@H](OC)[C@@H](O[C@H]4C[C@H](OC)[C@@H](NC)[C@H](C)O4)[C@H](C)O3)[C@@H](C)/C=C/C=C3\CO[C@@H]4[C@H](O)C(C)=C[C@@H](C(=O)O1)[C@]34O)O2 in this test?
Data returned: inactive

Data request: Dear colleague, could you share the recorded outcome for CCOP(=O)(SC(C)CC)N1CCSC1=O (configuration not stated) when you have a moment?
Data returned: inactive

Data request: Lab log entry: CCNc1nc(Cl)nc(NC(C)(C)C#N)n1 — outcome as called in the assay?
Data returned: inactive

Data request: Check the results log: what was the call for CCc1cnc(C2=NC(C)(C(C)C)C(=O)N2)c(C(=O)O)c1 (configuration not stated) ?
Data returned: inactive

Data request: Lab log entry: FC(F)C(F)(F)OCC(Cn1cncn1)c1ccc(Cl)cc1Cl (configuration not stated) — outcome as called in the assay?
Data returned: inactive

Data request: So what was the verdict on COc1cc(OC)nc(Sc2cccc(Cl)c2C(=O)O)n1 in this test?
Data returned: inactive

Data request: Hi, do you know how CCc1cccc(C)c1N(C(=O)CCl)C(C)COC (configuration not stated) came out in this test?
Data returned: inactive

Data request: Fill in: this test's call for Nc1nc(N)nc(NC2CC2)n1 is ___
Data returned: inactive

Data request: Recorded test call requested for CSc1nnc(C(C)(C)C)c(=O)n1N
Data returned: inactive

Data request: How was CC(C)[C@H](C(=O)O[C@H](C#N)c1cccc(Oc2ccccc2)c1)c1ccc(Cl)cc1 classified in this test?
Data returned: inactive

Data request: Which outcome was entered for the molecule CSc1nc(NC(C)C)nc(NC(C)C)n1 in this test?
Data returned: inactive

Data request: What call does the record list for CCCSP(=O)(OCC)Oc1ccc(Br)cc1Cl (configuration not stated) ?
Data returned: active

Data request: Hi team, can someone confirm the assay call for COc1cccc(C(=O)NN(C(=O)c2cc(C)cc(C)c2)C(C)(C)C)c1C ?
Data returned: active
